experiment: AUC (0 to infinity) in F344/DuCrlCrlj rat at 0.5 mg/kg, po administered via gavage by LC-MS/MS analysis; type: ADME, organism-based; parameters: time infinity, dose 0.5 mg/kg, dosed compound name [14C]Rivoglitazone, route oral; settings: plasma
metric.name: AUC(0-inf) (ng·h/mL)
Expressed in ng·h/mL, but write only the number.

-- ask For COc1ccc2nc(COc3ccc(CC4SC(=O)NC4=O)cc3)n(C)c2c1.Cl (racemic) , what is its reported AUC(0-inf)?
-- reply 21800

----------
assay: Drug excretion in monkey urine treated with [14C]rivoglitazone at 1 mg/kg, po administered via gavage measured during 0 to 72 hrs by radio-HPLC analysis; type: ADME, organism-based, Macaca mulatta; design: dose 1 mg/kg, dosed compound name [14C]Rivoglitazone, route oral; settings: rhesus monkey, in vivo
Label Satisfied when Compound recovery is at or above 1%; otherwise label Not satisfied.

-- ask Hi team, for COc1ccc2nc(COc3ccc(CC(C(N)=O)S(C)(=O)=O)cc3)n(C)c2c1 (stereo unspecified) , is the recorded Compound recovery at or above 1%?
-- reply Satisfied

-- ask Hi team, for Cn1c(COc2ccc(CC3SC(=O)NC3=O)cc2)nc2ccc(O[C@@H]3O[C@H](C(=O)O)[C@@H](O)[C@H](O)[C@H]3O)cc21 (stereo partly specified) , is the recorded Compound recovery at or above 1%?
-- reply Satisfied

-- ask Hi team, for COc1ccc2nc(COc3ccc(CC4SC(=O)N([C@@H]5O[C@H](C(=O)O)[C@@H](O)[C@H](O)[C@H]5O)C4=O)cc3)n(C)c2c1 (stereo partly specified) , is the recorded Compound recovery at or above 1%?
-- reply Satisfied

-- ask Hi team, for COc1ccc2nc(COc3ccc(CC4(O)SC(=O)NC4=O)cc3)n(C)c2c1 (stereo unspecified) , is the recorded Compound recovery at or above 1%?
-- reply Not satisfied

-- ask Hi team, for O=C1NC(=O)C(Cc2ccc(OCc3nc4ccc(O)cc4[nH]3)cc2)S1 (stereo unspecified) , is the recorded Compound recovery at or above 1%?
-- reply Satisfied

-- ask Hi team, for CSC(Cc1ccc(OCc2nc3ccc(O[C@@H]4O[C@H](C(=O)O)[C@@H](O)[C@H](O)[C@H]4O)cc3n2C)cc1)C(N)=O (stereo partly specified) , is the recorded Compound recovery at or above 1%?
-- reply Satisfied

----------
assay: Cmax in F344/DuCrlCrlj rat at 0.1 mg/kg, po administered via gavage by LC-MS/MS analysis; type: ADME, organism-based; set-up: dose 0.1 mg/kg, dosed compound name [14C]Rivoglitazone, route oral; settings: in vivo
metric.name: Cmax (ng/mL)
Expressed in ng/mL, but write only the number.

-- ask For COc1ccc2nc(COc3ccc(CC4SC(=O)NC4=O)cc3)n(C)c2c1.Cl (racemic) , what is its reported Cmax?
-- reply 409

----------
Please provide measured AUCmet/AUCp for the entries that follow.
test system: Rattus norvegicus; test: Drug level in F344/DuCrlCrlj rat plasma treated with [14C]rivoglitazone assessed as ratio of molar basis AUC (0 to t) at 1 mg/kg, po administered via gavage by LC-MS/MS analysis; type: ADME, organism-based; parameters: dose 1 mg/kg, dosed compound name [14C]Rivoglitazone, route oral; conditions: in vivo
Expressed in %, but write only the number.

-- ask For COc1ccc2nc(COc3ccc(CC4SC(=O)NC4=O)cc3)[nH]c2c1 (stereo not drawn) , what is its reported AUCmet/AUCp?
-- reply 0.02

-- ask For COc1ccc2nc(COc3ccc(CC(SC)C(N)=O)cc3)n(C)c2c1 (stereo not drawn) , what is its reported AUCmet/AUCp?
-- reply 0.01

-- ask For COc1ccc2nc(COc3ccc(CC(C(N)=O)S(C)(=O)=O)cc3)n(C)c2c1 (stereo not drawn) , what is its reported AUCmet/AUCp?
-- reply 0.02

-- ask For COc1ccc2nc(COc3ccc(CC(C(N)=O)[S+](C)[O-])cc3)n(C)c2c1 (stereo not drawn) , what is its reported AUCmet/AUCp?
-- reply 0.08

-- ask For Cn1c(COc2ccc(CC3SC(=O)NC3=O)cc2)nc2ccc(OS(=O)(=O)O)cc21 (stereo not drawn) , what is its reported AUCmet/AUCp?
-- reply 23.4

-- ask For COc1ccc2nc(COc3ccc(CC(SC)C(=O)O)cc3)n(C)c2c1 (stereo not drawn) , what is its reported AUCmet/AUCp?
-- reply 0.01

-- ask For COc1ccc2nc(COc3ccc(CC4(O)SC(=O)NC4=O)cc3)n(C)c2c1 (stereo not drawn) , what is its reported AUCmet/AUCp?
-- reply 0.03

-- ask For Cn1c(COc2ccc(CC3SC(=O)NC3=O)cc2)nc2ccc(O)cc21 (stereo not drawn) , what is its reported AUCmet/AUCp?
-- reply 0.72

----------
assay: Total clearance in monkey at 0.986 mg/kg, iv administered via tail vein by LC-MS/MS analysis; format: ADME, organism-based, Macaca mulatta; design: dose 0.986 mg/kg, dosed compound name [14C]Rivoglitazone, route intravenous; conditions: rhesus monkey, in vivo
metric.name: clearance
Hi, when you answer, please include the unit after the number. Thanks!

-- ask For COc1ccc2nc(COc3ccc(CC4SC(=O)NC4=O)cc3)n(C)c2c1.Cl (racemic) , what is its reported clearance?
-- reply 0.31 mL/min/kg

----------
assay: AUC (0 to t) in monkey at 0.986 mg/kg, iv administered via tail vein by LC-MS/MS analysis; format: ADME, organism-based, Macaca mulatta; parameters: dose 0.986 mg/kg, dosed compound name [14C]Rivoglitazone, route intravenous; settings: rhesus monkey, plasma
metric.name: AUC(0-t)

-- ask For COc1ccc2nc(COc3ccc(CC4SC(=O)NC4=O)cc3)n(C)c2c1.Cl (racemic) , what is its reported AUC(0-t)?
-- reply 51700 ng·h/mL

----------
experiment: Apparent total clearance in F344/DuCrlCrlj rat at 1 mg/kg, po administered via gavage by LC-MS/MS analysis; assay type: ADME, organism-based; set-up: dose 1 mg/kg, dosed compound name [14C]Rivoglitazone, route oral; settings: in vivo, read-out: CLt/F
metric.name: CL/F (L/h/kg)
Expressed in L/h/kg, but write only the number.

-- ask For COc1ccc2nc(COc3ccc(CC4SC(=O)NC4=O)cc3)n(C)c2c1.Cl (racemic) , what is its reported CL/F?
-- reply 0.0182

----------
experiment: Apparent total clearance in monkey at 0.986 mg/kg, po administered via gavage by LC-MS/MS analysis; format: ADME, organism-based, Macaca mulatta; set-up: dose 0.986 mg/kg, dosed compound name [14C]Rivoglitazone, route oral; conditions: rhesus monkey, in vivo, read-out: CLt/F
metric.name: CL/F (mL/min/kg)
Expressed in mL/min/kg, but write only the number.

-- ask For COc1ccc2nc(COc3ccc(CC4SC(=O)NC4=O)cc3)n(C)c2c1.Cl (racemic) , what is its reported CL/F?
-- reply 0.41

----------
assay: Terminal elimination half life in monkey at 0.493 mg/kg, iv administered via tail vein by LC-MS/MS analysis; type: ADME, organism-based, Macaca mulatta; set-up: dose 0.493 mg/kg, dosed compound name [14C]Rivoglitazone, route intravenous; conditions: rhesus monkey, in vivo, read-out: beta t1/2 (converted)
metric.name: half-life (h)
Expressed in h, but write only the number.

-- ask For COc1ccc2nc(COc3ccc(CC4SC(=O)NC4=O)cc3)n(C)c2c1.Cl (racemic) , what is its reported half-life?
-- reply 6.21

----------
assay: AUC (0 to infinity) in F344/DuCrlCrlj rat at 0.1 mg/kg, iv administered via tail vein by LC-MS/MS analysis; assay type: ADME, organism-based; design: time infinity, dose 0.1 mg/kg, dosed compound name [14C]Rivoglitazone, route intravenous; conditions: plasma
metric.name: AUC(0-inf)

-- ask For COc1ccc2nc(COc3ccc(CC4SC(=O)NC4=O)cc3)n(C)c2c1.Cl (racemic) , what is its reported AUC(0-inf)?
-- reply 4670 ng·h/mL

----------
assay: Apparent total clearance in F344/DuCrlCrlj rat at 0.1 mg/kg, po administered via gavage by LC-MS/MS analysis; format: ADME, organism-based; design: dose 0.1 mg/kg, dosed compound name [14C]Rivoglitazone, route oral; conditions: in vivo, read-out: CLt/F
metric.name: CL/F (mL/min/kg)
Expressed in mL/min/kg, but write only the number.

-- ask For COc1ccc2nc(COc3ccc(CC4SC(=O)NC4=O)cc3)n(C)c2c1.Cl (racemic) , what is its reported CL/F?
-- reply 0.354

----------
experiment: Oral bioavailability in monkey at 0.0986 mg/kg administered via gavage by LC-MS/MS analysis; format: ADME, organism-based, Macaca mulatta; set-up: dosed compound name [14C]Rivoglitazone; details: rhesus monkey, in vivo
metric.name: bioavailability
Hi, when you answer, please include the unit after the number. Thanks!

-- ask For COc1ccc2nc(COc3ccc(CC4SC(=O)NC4=O)cc3)n(C)c2c1.Cl (racemic) , what is its reported bioavailability?
-- reply 106%

FYI, the data here is from ChEMBL document CHEMBL3525983.
